Ref: patent US20200317779A1

assayed system: recombinant cynomolgus monkey CD3ε/δ heterodimer (cynomolgus monkey) (UniProt Q95LI5)
Sequence (Q95LI5 22-117, stated change not applied, chain 1 of 2): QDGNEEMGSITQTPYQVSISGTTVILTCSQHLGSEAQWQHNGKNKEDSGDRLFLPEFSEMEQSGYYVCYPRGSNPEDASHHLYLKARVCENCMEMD
Sequence (Q95LI8 22-105, stated change not applied, chain 2 of 2, further chain): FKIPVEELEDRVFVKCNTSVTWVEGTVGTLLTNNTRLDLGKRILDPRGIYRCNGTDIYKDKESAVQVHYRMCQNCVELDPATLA
method notes: ELISA, coated CD3ε/δ
# Absorbance (450 nm) values compiled below
Please state the value as a number alone, without comment.

Query: Query (binder): H07 (antibody, human IgG1, lambda, L234A L235A, V domains shown) VH: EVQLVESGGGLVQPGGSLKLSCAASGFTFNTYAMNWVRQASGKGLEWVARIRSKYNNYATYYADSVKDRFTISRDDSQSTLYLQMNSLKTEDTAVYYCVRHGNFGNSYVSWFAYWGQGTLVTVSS VL: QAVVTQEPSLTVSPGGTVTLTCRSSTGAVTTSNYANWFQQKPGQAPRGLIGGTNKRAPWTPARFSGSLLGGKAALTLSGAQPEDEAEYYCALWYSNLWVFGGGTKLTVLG ; field requested: Absorbance (450 nm)
Response: 0.09

Query: How about H12 (antibody, human IgG1, lambda, L234A L235A, V domains shown) VH: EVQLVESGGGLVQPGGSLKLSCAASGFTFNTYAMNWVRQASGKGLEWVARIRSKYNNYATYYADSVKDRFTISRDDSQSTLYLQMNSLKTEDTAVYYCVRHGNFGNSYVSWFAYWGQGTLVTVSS VL: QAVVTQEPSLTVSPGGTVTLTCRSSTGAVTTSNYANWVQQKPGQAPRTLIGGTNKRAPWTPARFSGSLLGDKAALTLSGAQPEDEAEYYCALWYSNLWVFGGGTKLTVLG ?
Response: 0.083

Shift focus to the following entry.
Query: Bench note: what Absorbance (450 nm) did A03 (antibody, human IgG1, lambda, L234A L235A, V domains shown) VH: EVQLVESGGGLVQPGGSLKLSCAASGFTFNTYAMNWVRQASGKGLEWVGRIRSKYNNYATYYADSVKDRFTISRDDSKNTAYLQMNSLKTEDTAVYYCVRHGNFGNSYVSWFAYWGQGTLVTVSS VL: QAVVTQEPSLTVSPGGTVTLTCRSSTGAVTTSNYANWFQQKPGQAPRTLIGGTNKRAPWTPARFSGSLLGGKAALTLSGAQPEDEAEYYCALWYSNLWVFGGGTKLTVLG show?
Response: 0.094
